A collection of compounds and their measured pIC50
System: RH-1;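 also: growth inhibition of human RH-1 cells, read out with a cell viability assay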
EXPERIMENT SUMMARY: cells
Assay type: functional, cell-based, Homo sapiens
RUN CONDITIONS: Homo sapiens, RH-1
Description: SANGER: Inhibition of human RH-1 cell growth in a cell viability assay.
pIC50: −log10 of the molar value.

>>> obs_value("C[C@]1(O)C[C@@H](c2nc(-c3ccc4ccc(-c5ccccc5)nc4c3)c3c(N)nccn32)C1")
6.13
>>> obs_value("Cn1cc(C2=C(c3ccc(Cl)cc3Cl)C(=O)NC2=O)c2ccccc21")
"< 5.00"
>>> obs_value("CN(Cc1cnc2nc(N)nc(N)c2n1)c1ccc(C(=O)N[C@@H](CCC(=O)O)C(=O)O)cc1 [METHOTREXATE]")
"< 6.70"

If you can, please state the reported pIC50 value of `C=CCc1cccc(/C=N/NC(=O)CN2CCN(Cc3ccccc3)CC2)c1O` . < 5.59

For `CN(c1ncccc1CNc1nc(Nc2ccc3c(c2)CC(=O)N3)ncc1C(F)(F)F)S(C)(=O)=O` , what is its reported pIC50? < 5.59

* * *

Test system: TI-73;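 also: cell viability assay measuring how much compounds suppress growth of the cultured cell line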
EXPERIMENT SUMMARY: cells
Format: functional, cell-based
RUN CONDITIONS: Homo sapiens
Description: SANGER: Inhibition of human TI-73 cell growth in a cell viability assay.
TEST READOUT: IC50

Answered examples (3):
>>> obs_value("COc1ccc(C2=N[C@@H](c3ccc(Cl)cc3)[C@@H](c3ccc(Cl)cc3)N2C(=O)N2CCNC(=O)C2)c(OC(C)C)c1")
"> 8000 nM"
>>> obs_value("CN(Cc1cnc2nc(N)nc(N)c2n1)c1ccc(C(=O)N[C@@H](CCC(=O)O)C(=O)O)cc1 [METHOTREXATE]")
"> 200 nM"
>>> obs_value("C=CCNC1=C2C[C@@H](C)C[C@H](OC)[C@H](O)[C@@H](C)/C=C(\\C)[C@H](OC(N)=O)[C@@H](OC)/C=C\\C=C(/C)C(=O)NC(=CC1=O)C2=O")
"18 nM"

Field: IC50 (TI-73). Entry: `Cn1cc(C2=C(c3ccc(Cl)cc3Cl)C(=O)NC2=O)c2ccccc21` > 10000 nM

* * *

Tested on: NCI-H2196;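 also: cell viability assay used as the readout of growth inhibition in NCI-H2196 cells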
EXPERIMENT SUMMARY: cells
Type: functional, cell-based
RUN CONDITIONS: Homo sapiens
Description: SANGER: Inhibition of human NCI-H2196 cell growth in a cell viability assay.
A collection of compounds and their measured IC50

Entry Cc1cc(Nc2cc(N3CCN(C)CC3)nc(Sc3ccc(NC(=O)C4CC4)cc3)n2)n[nH]1 [TOZASERTIB] has what IC50? > 2 µM

What value of measured IC50 is listed for O=C(/C=C/c1ccccc1)NC(NC(=S)Nc1cccc2cccnc12)C(Cl)(Cl)Cl (stereo not given) [SALUBRINAL] ? > 16 µM

Item under review: CN(c1ncccc1CNc1nc(Nc2ccc3c(c2)CC(=O)N3)ncc1C(F)(F)F)S(C)(=O)=O [PF-00562271] . Reported IC50? > 2.56 µM

Returns the measured IC50 for the input compound. Input: Cc1ccc(Nc2nccc(N(C)c3ccc4c(C)n(C)nc4c3)n2)cc1S(N)(=O)=O [PAZOPANIB] > 8 µM

Return reported IC50; argument: Cn1cncc1[C@@](N)(c1ccc(Cl)cc1)c1ccc2c(c1)c(-c1cccc(Cl)c1)cc(=O)n2C [TIPIFARNIB] > 16 µM

* * *

Item-by-item account of pIC50
Tested on: ES5;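 also: growth inhibition of human ES5 cells, read out by a cell viability assay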
EXPERIMENT SUMMARY: cells
Assay type: functional, cell-based, Homo sapiens
RUN CONDITIONS: Homo sapiens, ES5
Description: SANGER: Inhibition of human ES5 cell growth in a cell viability assay.
pIC50: −log10 of the molar value.

>>> obs_value("O=C(NOCC1CC1)c1ccc(F)c(F)c1Nc1ccc(I)cc1Cl [CI-1040]")
"< 5.00"
>>> obs_value("CCOc1nc(NC(=O)Cc2cc(OC)ccc2OC)cc(N)c1C#N")
"< 5.00"
>>> obs_value("CC(=O)O[C@@]12CO[C@@H]1C[C@H](O)[C@@]1(C)C(=O)[C@H](O)C3=C(C)[C@@H](OC(=O)[C@H](O)[C@@H](NC(=O)OC(C)(C)C)c4ccccc4)C[C@@](O)([C@@H](OC(=O)c4ccccc4)[C@H]21)C3(C)C [DOCETAXEL]")
9.04
>>> obs_value("O=c1cc(-c2cccc3c2Sc2ccccc2S3)oc(N2CCOCC2)c1 [KU-55933]")
"< 5.00"
>>> obs_value("Cn1cncc1[C@@](N)(c1ccc(Cl)cc1)c1ccc2c(c1)c(-c1cccc(Cl)c1)cc(=O)n2C [TIPIFARNIB]")
"< 4.80"

Write down the reported pIC50 of C=C1C(=O)O[C@@H]2C3O[C@]3(C)CC/C=C(\C)CC[C@@H]12 (stereo partly drawn) , test system: ES5. < 5.30

Request - read-out pIC50 | tested on ES5 | compound CN1CCN(CCOc2cc(OC3CCOCC3)c3c(Nc4c(Cl)ccc5c4OCO5)ncnc3c2)CC1 [SARACATINIB] < 5.70

Fill in the recorded pIC50 for this compound, with ES5 as test system: COc1cc([C@@H]2c3cc4c(cc3[C@@H](O[C@@H]3O[C@@H]5CO[C@@H](C)O[C@H]5[C@H](O)[C@H]3O)[C@H]3COC(=O)[C@H]23)OCO4)cc(OC)c1O [ETOPOSIDE] < 4.80

* * *

Test system: DJM-1
EXPERIMENT SUMMARY: cells
Format: functional, cell-based, Homo sapiens
RUN CONDITIONS: Homo sapiens, DJM-1
Description: SANGER: Inhibition of human DJM-1 cell growth in a cell viability assay.
pIC50: −log10 of the molar value.
TEST READOUT: pIC50

>>> obs_value("COc1ccc(C2=N[C@@H](c3ccc(Cl)cc3)[C@@H](c3ccc(Cl)cc3)N2C(=O)N2CCNC(=O)C2)c(OC(C)C)c1")
"< 5.10"

What pIC50 appears in the records for this compound with DJM-1? `CO[C@H]1C[C@@H]2CC[C@@H](C)[C@@](O)(O2)C(=O)C(=O)N2CCCC[C@H]2C(=O)O[C@H]([C@H](C)C[C@@H]2CC[C@@H](O)[C@H](OC)C2)CC(=O)[C@H](C)/C=C(\C)[C@@H](O)[C@@H](OC)C(=O)[C@H](C)C[C@H](C)/C=C/C=C/C=C/1C` < 7.00

Report pIC50 for `C=CCNC1=C2C[C@@H](C)C[C@H](OC)[C@H](O)[C@@H](C)/C=C(\C)[C@H](OC(N)=O)[C@@H](OC)/C=C\C=C(/C)C(=O)NC(=CC1=O)C2=O` tested on DJM-1. < 6.00

* * *

System: CP50-MEL-B;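 also: growth inhibition of the human cell line, measured with a cell viability read-out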
EXPERIMENT SUMMARY: cells
Assay type: functional, cell-based, Homo sapiens
RUN CONDITIONS: cp50-mel-b
Description: SANGER: Inhibition of human CP50-MEL-B cell growth in a cell viability assay.
TEST READOUT: IC50

IC50 for `Cc1cc([C@@H](C)Nc2ccccc2C(=O)O)c2nc(N3CCOCC3)cc(=O)n2c1` ? > 5.12 µM

* * *

Tested on: NCI-H1417;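 also: human NCI-H1417 cells, growth inhibition determined with a cell viability readout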
EXPERIMENT SUMMARY: cells
Type: functional, cell-based
RUN CONDITIONS: Homo sapiens
Description: SANGER: Inhibition of human NCI-H1417 cell growth in a cell viability assay.
TEST READOUT: IC50

Example entries and their recorded answers appear below.
>>> obs_value("Cc1cnc(-c2cnc(NCCNc3ccc(C#N)cn3)nc2-c2ccc(Cl)cc2Cl)[nH]1")
"> 2.56 µM"
>>> obs_value("Cc1cc(Nc2cc(N3CCN(C)CC3)nc(Sc3ccc(NC(=O)C4CC4)cc3)n2)n[nH]1")
"> 2 µM"
>>> obs_value("Cn1cncc1[C@@](N)(c1ccc(Cl)cc1)c1ccc2c(c1)c(-c1cccc(Cl)c1)cc(=O)n2C")
"> 16 µM"

What does the data say about its IC50? Entry: O=C(/C=C/c1ccccc1)NC(NC(=S)Nc1cccc2cccnc12)C(Cl)(Cl)Cl (stereo unspecified) > 16 µM

IC50 lookup needed for `CNC(=O)c1cc(Oc2ccc(NC(=O)Nc3ccc(Cl)c(C(F)(F)F)c3)cc2)ccn1` , thanks. > 4 µM

I have this compound here, `CC1=C2C[C@H]3[C@@H](CC=C4C[C@@H](O)CC[C@@]43C)[C@@H]2CC[C@]12O[C@@H]1C[C@H](C)CN[C@H]1[C@H]2C` , and I need its recorded IC50. > 16 µM

* * *

Tested on: L-363
EXPERIMENT SUMMARY: cells
Assay type: functional, cell-based
RUN CONDITIONS: Homo sapiens
Description: SANGER: Inhibition of human L-363 cell growth in a cell viability assay.
pIC50: −log10 of the molar value.
TEST READOUT: pIC50

Below, 2 molecules whose answers are already recorded.
>>> obs_value("COc1ccc(C2=N[C@@H](c3ccc(Cl)cc3)[C@@H](c3ccc(Cl)cc3)N2C(=O)N2CCNC(=O)C2)c(OC(C)C)c1")
"< 5.10"
>>> obs_value("CS(=O)(=O)CCNCc1ccc(-c2ccc3ncnc(Nc4ccc(OCc5cccc(F)c5)c(Cl)c4)c3c2)o1")
"< 5.70"

Looking for the measured pIC50 of `CC1=C2C[C@H]3[C@@H](CC=C4C[C@@H](O)CC[C@@]43C)[C@@H]2CC[C@]12O[C@@H]1C[C@H](C)CN[C@H]1[C@H]2C` , can you help? < 4.80

Given `O=C1N=C(NCc2cccs2)S/C1=C\c1ccc2ncccc2c1` , state its recorded pIC50. < 5.30

Query (molecule): `O=C(c1cc(Cc2n[nH]c(=O)c3ccccc23)ccc1F)N1CCN(C(=O)C2CC2)CC1` ; field requested: pIC50 < 5.30
